Notes on log10 of Ki obtained with UniProtKB P28222.
Sequence (P28222 whole entry): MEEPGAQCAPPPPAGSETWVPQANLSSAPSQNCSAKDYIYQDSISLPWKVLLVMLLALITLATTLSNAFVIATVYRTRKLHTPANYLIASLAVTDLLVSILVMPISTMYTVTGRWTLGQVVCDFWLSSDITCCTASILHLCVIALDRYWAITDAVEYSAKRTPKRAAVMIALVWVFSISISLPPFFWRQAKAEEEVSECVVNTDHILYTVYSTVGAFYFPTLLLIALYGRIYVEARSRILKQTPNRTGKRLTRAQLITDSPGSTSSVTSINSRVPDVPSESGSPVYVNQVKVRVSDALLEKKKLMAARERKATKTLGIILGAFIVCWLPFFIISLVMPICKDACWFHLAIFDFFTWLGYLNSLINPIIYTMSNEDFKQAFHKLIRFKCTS
Log10 applied to Ki; unit prior to transform: nM.

Solved cases (7 shown):
- CC(C)c1ccc2[nH]cc(C[C@H]3CCCN3C)c2c1: 1.02
- CCc1ccc2[nH]cc(C[C@H]3CCCN3C)c2c1: 1.67
- Cc1ccc2[nH]cc(C[C@H]3CCCN3C)c2c1: 2.07
- CC(C)(C)c1ccc2[nH]cc(CCN3CCCC3)c2c1: 2.49
- CC(C)c1ccc2[nH]cc(CCN(C)C)c2c1: 1.15
- CC(C)c1ccc2[nH]cc(CCN3CCCC3)c2c1: 2.67
- CN1CCC[C@@H]1Cc1c[nH]c2ccc(C(C)(C)C)cc12: 1.19

GET /values?readout=log10 of Ki&item= CCc1ccc2[nH]cc(CCN3CCCC3)c2c1
3.21
